The reported numbers originate from ChEMBL document CHEMBL1127551.

# system-name: Cyclooxygenase (Bos taurus, UniProt O62664+O62698)
# Sequence (O62664 whole entry): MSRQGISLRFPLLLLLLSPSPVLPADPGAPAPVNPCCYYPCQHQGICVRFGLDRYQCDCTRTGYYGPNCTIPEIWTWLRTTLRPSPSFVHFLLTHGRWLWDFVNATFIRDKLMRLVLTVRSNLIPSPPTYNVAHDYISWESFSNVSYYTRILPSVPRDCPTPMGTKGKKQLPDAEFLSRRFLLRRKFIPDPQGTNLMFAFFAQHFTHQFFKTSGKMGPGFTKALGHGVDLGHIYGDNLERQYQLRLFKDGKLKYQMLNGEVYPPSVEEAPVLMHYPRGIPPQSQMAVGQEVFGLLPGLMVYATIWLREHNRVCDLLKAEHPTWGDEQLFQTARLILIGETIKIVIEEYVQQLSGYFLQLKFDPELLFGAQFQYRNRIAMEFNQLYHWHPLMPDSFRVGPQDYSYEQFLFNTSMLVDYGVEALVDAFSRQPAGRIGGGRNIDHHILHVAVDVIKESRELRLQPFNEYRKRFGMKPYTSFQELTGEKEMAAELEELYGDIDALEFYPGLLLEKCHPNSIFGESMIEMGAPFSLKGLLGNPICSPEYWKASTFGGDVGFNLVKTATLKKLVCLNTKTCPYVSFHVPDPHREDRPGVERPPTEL
# Sequence (O62698 whole entry): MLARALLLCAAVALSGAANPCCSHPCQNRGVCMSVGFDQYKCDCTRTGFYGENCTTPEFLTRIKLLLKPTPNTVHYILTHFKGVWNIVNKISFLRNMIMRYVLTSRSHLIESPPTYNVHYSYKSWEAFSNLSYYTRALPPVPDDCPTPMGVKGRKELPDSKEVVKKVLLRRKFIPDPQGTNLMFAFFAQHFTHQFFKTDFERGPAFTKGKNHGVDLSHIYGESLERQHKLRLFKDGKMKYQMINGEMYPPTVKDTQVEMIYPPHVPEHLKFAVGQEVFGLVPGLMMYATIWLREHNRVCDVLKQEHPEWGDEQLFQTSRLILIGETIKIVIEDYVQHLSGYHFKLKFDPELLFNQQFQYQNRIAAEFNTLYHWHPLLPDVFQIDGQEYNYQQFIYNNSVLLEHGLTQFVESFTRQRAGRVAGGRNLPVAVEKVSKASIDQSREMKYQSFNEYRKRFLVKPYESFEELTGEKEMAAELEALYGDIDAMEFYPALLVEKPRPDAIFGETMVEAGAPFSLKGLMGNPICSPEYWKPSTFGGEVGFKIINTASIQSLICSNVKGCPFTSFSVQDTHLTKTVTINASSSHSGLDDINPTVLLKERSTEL
# assay-details: Inhibition of Prostaglandin G/H synthase in bovine thrombocyte intact cell assay.
Quick list: IC50 per entry.
# number only, unit nM dropped from output

# example entries with known answers
* O=C(O)Cc1c(-c2ccc(Cl)cc2)c(-c2ccccc2)c2n1CCC2 | 2000
* CC1(C)Cc2c(-c3ccccc3)c(-c3ccc(O)cc3)c(CC(=O)O)n2C1 | 1600
* CC1(C)Cc2c(-c3ccccc3)c(-c3ccc(Cl)cc3)c(CC(=O)O)n2C1 | 210

Query: Look up IC50 for this compound: `CC1(C)Cc2c(-c3ccccc3)c(-c3ccc(F)cc3)c(CC(=O)O)n2C1`
Response: 3200

Query: Look up IC50 for this compound: `CC1(C)Cc2c(-c3ccccc3)c(-c3cc(Cl)ccc3Cl)c(CC(=O)O)n2C1`
Response: 12000

* * *

# system-name: Polyunsaturated fatty acid 5-lipoxygenase (Homo sapiens, UniProt P09917)
# Sequence (P09917 whole entry): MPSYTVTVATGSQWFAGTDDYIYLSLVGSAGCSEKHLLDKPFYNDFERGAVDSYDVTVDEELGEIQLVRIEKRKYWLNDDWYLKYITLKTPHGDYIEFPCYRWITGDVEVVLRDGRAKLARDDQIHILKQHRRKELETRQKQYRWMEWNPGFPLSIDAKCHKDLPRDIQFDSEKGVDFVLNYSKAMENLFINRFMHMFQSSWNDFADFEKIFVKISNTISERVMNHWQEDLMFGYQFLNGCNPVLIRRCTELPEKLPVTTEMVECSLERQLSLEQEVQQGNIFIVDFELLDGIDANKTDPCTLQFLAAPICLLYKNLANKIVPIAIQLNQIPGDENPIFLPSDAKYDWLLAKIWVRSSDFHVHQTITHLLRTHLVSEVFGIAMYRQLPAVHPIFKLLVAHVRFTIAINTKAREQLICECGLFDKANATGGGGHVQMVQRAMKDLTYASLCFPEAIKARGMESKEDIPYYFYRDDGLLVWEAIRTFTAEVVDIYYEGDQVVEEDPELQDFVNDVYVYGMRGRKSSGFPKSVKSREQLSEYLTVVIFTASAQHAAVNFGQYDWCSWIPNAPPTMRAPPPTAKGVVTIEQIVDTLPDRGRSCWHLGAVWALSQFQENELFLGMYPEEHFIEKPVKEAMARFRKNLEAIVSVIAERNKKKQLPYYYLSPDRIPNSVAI
# assay-details: Inhibition of human 5-lipoxygenase in human cells
readout-kind: IC50 (µM)
# number only, unit µM dropped from output

Query: Look up IC50 for this molecule: `CC1(C)Cc2c(-c3ccccc3)c(-c3ccc(Cl)cc3)c(CC(=O)O)n2C1`
Response: 0.23

* * *

# system-name: UniProt:Q9BEG3
# assay-details: Inhibition of 5-lipoxygenase in bovine PMNL cell assay.
Lab note: compare IC50 with 2 µM, writing 1.0 if less and 0.0 if equal or more.

- CC1(C)Cc2c(-c3ccccc3)c(-c3ccc(Cl)cc3Cl)c(CC(=O)O)n2C1: 0.0
- CC1(C)Cc2c(-c3ccccc3)c(-c3ccc(Cl)c(Cl)c3)c(CC(=O)O)n2C1: 1.0
- COc1ccc(-c2c(-c3ccccc3)c3n(c2CC(=O)O)CC(C)(C)C3)cc1: 1.0
- CC1(C)Cc2c(-c3ccccc3)c(-c3ccc(N)cc3)c(CC(=O)O)n2C1: 0.0
- CC1(C)Cc2c(-c3ccccc3)c(-c3ccc(C(C)(C)C)cc3)c(CC(=O)O)n2C1: 1.0

Query: Here's an entry: `CC1(C)Cc2c(-c3ccccc3)c(-c3ccc([N+](=O)[O-])cc3)c(CC(=O)O)n2C1` . Is its IC50 below 2 µM?
Response: 1.0

Query: Here's an entry: `CC1(C)Cc2c(-c3ccccc3)c(-c3ccc(F)cc3)c(CC(=O)O)n2C1` . Is its IC50 below 2 µM?
Response: 0.0

Query: Here's an entry: `CC1(C)Cc2c(-c3ccccc3)c(-c3ccccc3)c(CC(=O)O)n2C1` . Is its IC50 below 2 µM?
Response: 0.0

Query: Here's an entry: `CC1(C)Cc2c(-c3ccccc3)c(-c3ccc(Cl)c(Cl)c3Cl)c(CC(=O)O)n2C1` . Is its IC50 below 2 µM?
Response: 1.0

* * *

# system-name: Arachidonate 5-lipoxygenase (Bos taurus)
# Sequence (Q9BEG3 whole entry): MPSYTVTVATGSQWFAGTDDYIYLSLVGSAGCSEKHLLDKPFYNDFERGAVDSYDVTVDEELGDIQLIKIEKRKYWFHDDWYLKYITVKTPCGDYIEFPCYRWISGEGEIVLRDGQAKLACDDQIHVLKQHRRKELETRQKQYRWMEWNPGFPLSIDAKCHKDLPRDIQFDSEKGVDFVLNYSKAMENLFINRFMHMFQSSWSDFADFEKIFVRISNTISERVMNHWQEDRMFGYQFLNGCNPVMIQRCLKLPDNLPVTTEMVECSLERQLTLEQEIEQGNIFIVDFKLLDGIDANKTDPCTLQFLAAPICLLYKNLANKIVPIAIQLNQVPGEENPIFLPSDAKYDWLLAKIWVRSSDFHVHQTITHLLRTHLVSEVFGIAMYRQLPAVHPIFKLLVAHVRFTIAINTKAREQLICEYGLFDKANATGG
# assay-details: Inhibition of 5-lipoxygenase in bovine PMNL cell assay.
# Type: cell-based
Quick list: pIC50 per entry.
Bear in mind: pIC50 is minus log10 of a mol/L concentration; give just that figure.

# example entries with known answers
- CC1(C)Cc2c(-c3ccccc3)c(-c3ccc(Oc4ccccc4)cc3)c(CC(=O)O)n2C1: 5.80
- CC1(C)Cc2c(-c3ccccc3)c(-c3ccc(Cl)cc3)c(CC(=O)O)n2C1 [LICOFELONE]: 6.74
- CC1(C)Cc2c(-c3ccccc3)c(-c3cc(Cl)ccc3Cl)c(CC(=O)O)n2C1: 5.37
- CC1(C)Cc2c(-c3ccccc3)c(-c3ccccc3Cl)c(CC(=O)O)n2C1: 5.36
- CC(=O)Nc1ccc(-c2c(-c3ccccc3)c3n(c2CC(=O)O)CC(C)(C)C3)cc1: 5.00
- CC1(C)Cc2c(-c3ccc(Cl)cc3)c(-c3ccccc3)c(CC(=O)O)n2C1: 5.28

Query: Item: `CC1(C)Cc2c(-c3ccccc3)c(-c3ccc(O)cc3)c(CC(=O)O)n2C1` Test system: Arachidonate 5-lipoxygenase (Bos taurus) Read-out: pIC50 Value: ?
Response: 5.11

Query: Item: `O=C(O)Cc1c(-c2ccc(Cl)cc2)c(-c2ccccc2)c2n1CCC2` Test system: Arachidonate 5-lipoxygenase (Bos taurus) Read-out: pIC50 Value: ?
Response: 5.80

Query: Item: `CC1(C)Cc2c(-c3ccccc3)c(-c3cccc(Cl)c3)c(CC(=O)O)n2C1` Test system: Arachidonate 5-lipoxygenase (Bos taurus) Read-out: pIC50 Value: ?
Response: 5.77

* * *

# system-name: Cyclooxygenase (Bos taurus, UniProt O62664+O62698)
# Sequence (O62664 whole entry): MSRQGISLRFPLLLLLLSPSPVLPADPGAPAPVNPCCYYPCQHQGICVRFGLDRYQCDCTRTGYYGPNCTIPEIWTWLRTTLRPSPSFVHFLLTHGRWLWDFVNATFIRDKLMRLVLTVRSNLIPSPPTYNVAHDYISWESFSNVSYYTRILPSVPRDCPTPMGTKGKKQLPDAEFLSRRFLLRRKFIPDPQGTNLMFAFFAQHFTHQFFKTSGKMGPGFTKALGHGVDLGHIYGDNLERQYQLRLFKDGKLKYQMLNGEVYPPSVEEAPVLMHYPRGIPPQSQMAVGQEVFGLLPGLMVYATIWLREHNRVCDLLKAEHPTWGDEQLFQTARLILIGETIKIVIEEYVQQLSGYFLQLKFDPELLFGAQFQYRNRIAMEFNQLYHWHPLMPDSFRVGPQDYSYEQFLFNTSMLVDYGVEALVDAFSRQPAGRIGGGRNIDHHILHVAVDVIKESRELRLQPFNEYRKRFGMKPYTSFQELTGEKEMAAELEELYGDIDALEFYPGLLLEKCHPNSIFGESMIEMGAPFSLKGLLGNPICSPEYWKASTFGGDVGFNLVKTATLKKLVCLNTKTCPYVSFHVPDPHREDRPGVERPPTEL
# Sequence (O62698 whole entry): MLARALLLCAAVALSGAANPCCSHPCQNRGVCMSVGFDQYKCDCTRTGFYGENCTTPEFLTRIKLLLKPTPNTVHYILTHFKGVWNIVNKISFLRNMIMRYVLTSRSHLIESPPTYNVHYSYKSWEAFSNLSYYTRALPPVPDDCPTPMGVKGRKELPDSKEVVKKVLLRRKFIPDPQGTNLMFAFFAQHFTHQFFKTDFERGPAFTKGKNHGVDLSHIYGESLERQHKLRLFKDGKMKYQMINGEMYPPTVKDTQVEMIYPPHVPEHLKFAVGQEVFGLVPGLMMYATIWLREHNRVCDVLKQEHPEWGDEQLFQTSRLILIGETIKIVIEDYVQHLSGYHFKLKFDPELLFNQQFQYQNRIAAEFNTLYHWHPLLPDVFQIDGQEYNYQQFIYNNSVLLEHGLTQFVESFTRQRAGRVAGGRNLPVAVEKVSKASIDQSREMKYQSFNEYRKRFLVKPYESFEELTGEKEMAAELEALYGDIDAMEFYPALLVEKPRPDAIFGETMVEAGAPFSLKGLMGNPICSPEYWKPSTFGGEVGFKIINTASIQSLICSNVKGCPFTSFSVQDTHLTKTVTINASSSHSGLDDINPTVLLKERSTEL
# assay-details: Inhibition of Prostaglandin G/H synthase in bovine thrombocyte intact cell assay.
readout-kind: IC50 (µM)
# number only, unit µM dropped from output

# example entries with known answers
• CC(=O)Nc1ccc(-c2c(-c3ccccc3)c3n(c2CC(=O)O)CC(C)(C)C3)cc1 = 0.8
• CC1(C)Cc2c(-c3ccccc3)c(-c3ccc(Cl)c(Cl)c3)c(CC(=O)O)n2C1 = 4.5
• CC1(C)Cc2c(-c3ccc(Cl)cc3)c(-c3ccccc3)c(CC(=O)O)n2C1 = 3.4

Query: Item: `CC1(C)Cc2c(-c3ccccc3)c(-c3ccc([N+](=O)[O-])cc3)c(CC(=O)O)n2C1` Test system: Cyclooxygenase (Bos taurus, UniProt O62664+O62698) Read-out: IC50 Value: ?
Response: 0.03

Query: Item: `CC1(C)Cc2c(-c3ccccc3)c(-c3ccccc3)c(CC(=O)O)n2C1` Test system: Cyclooxygenase (Bos taurus, UniProt O62664+O62698) Read-out: IC50 Value: ?
Response: 0.1

Query: Item: `CC1(C)Cc2c(-c3ccccc3)c(-c3ccc(N)cc3)c(CC(=O)O)n2C1` Test system: Cyclooxygenase (Bos taurus, UniProt O62664+O62698) Read-out: IC50 Value: ?
Response: 1
